// data source = PubChem BioAssay (NCI)

Tested on: UACC-62 melanoma
Test: NCI tumour cell line growth inhibition, 48 h
Where a SMILES comes first, the peptide text is derived from it. [ ]: non-standard residue; d: D form. The star is where a group is joined. ξ: configuration not given here. NMeF = CN[C@@H](Cc1ccccc1)C(=O)O; NMeV = CN[C@H](C(=O)O)C(C)C; ξNMeV = CNC(C(=O)O)C(C)C; Boc = CC(C)(C)OC(=O)*; OBn = c1ccc(CO*)cc1

compound	censoringQualifier	TGI [µM]
COc1cc2c[n+](C)c3c4cc(OC)c(OCc5ccccc5)cc4c(OCc4ccccc4)cc3c2cc1OC	=	10.4
CCO/C(O)=c1/s/c(=C(\C#N)c2nc3ccccc3[nH]2)n(-c2ccccc2)c1=N	>	100
O=C1C(=C([O-])c2ccccc2)C(=O)c2ccccc21.O=C1C(=C([O-])c2ccccc2)C(=O)c2ccccc21.[Ni+2]	>	100
CC1=C[C@@H]2c3c(c(O)c(O)c4oc5cc(O)cc(O)c5c(=O)c34)[C@@H](c3cc(O)c(O)c4oc5cc(O)cc(O)c5c(=O)c34)[C@@H]2C(C)(C)C1	=	5.72
COc1ccc2c(c1)-c1c(c3cc(OC)ccc3n(CCN(C)C)c1=O)C2=O	=	9.73
COc1cc(-c2ccc[nH]2)[nH]c1/C=C1\N=C(C)C(CC(=O)OCC(C)(C)C)=C1C	=	0.555
COc1cc(C(=O)n2nc(N)c3c(C)cc(C)nc32)cc(OC)c1OC	>	100
CSc1nc(SC)c2c(C)cn(COCCOC(=O)c3ccccc3)c2n1	>	100
CCN1C(=O)N(CC)C2C1N=C(SC)N2/N=C/C=C/c1ccccc1OC (stereo not given)	>	40.4
CSC(C1c2ccccc2N(C)c2[nH]c(=O)n(C)c(=O)c21)S(=O)(=O)c1ccc(C)cc1 (stereo not given)	>	100
COc1cc(/C=C/C(=N\NC(N)=S)c2sc(NNC(C)=O)nc2C)ccc1O	>	100
CN(C)S(=O)(=O)c1nc(Cl)c2[nH]cnc2n1	>	100
NC1=Nc2ccccc2Sc2cccc(F)c21	>	100
O=C1/C(=C/c2ccc(C(F)(F)F)cc2)COc2ccc(O)c(O)c21	=	2.87
CC(C)C(C(=O)N(C)[C@H](C(=O)N1CCC[C@H]1C(=O)N(C)[C@@H](Cc1ccccc1)C(=O)OCc1ccccc1)C(C)C)N(C)C(=O)[C@@H](NC(=O)OC(C)(C)C)C(C)C (stereo not given in full) (Boc-V[ξNMeV][NMeV]P[NMeF]-OBn)	>	31.6
O=c1[nH]cnc2c1cnn2Cc1cnnn1COCCO	>	100
O=C(NC1=C(Cl)C(=O)c2ccccc2C1=O)C(=O)C(C(=O)c1ccc2ccccc2c1)C1OC(=O)c2ccccc21 (stereo not given)	=	4.31
Cc1cc(C)c2c(n1)S(=O)(=O)N(CCCN1CCN(c3cccc(Cl)c3)CC1)/C(=C(\O)c1ccc(Br)cc1)C2=O	>	100
COC(=O)C1(Cc2ccccc2)Cc2cc3c(cc2C1O)CCC3 (stereo not given)	=	32.6
CC1OC(O[C@@H]2C=C3CC[C@@H]4[C@H](CC[C@]5(C)[C@@H](c6ccc(=O)oc6)CC[C@]45O)[C@@]3(C)CC2)C(O)C(OC2OC(CO)C(O)C(O)C2O)C1O (stereo not given in full)	=	0.0263
